Hello, the source for this data is ChEMBL document CHEMBL6127114, in case you need it.

# assay protocol: Apparent permeability in human Caco-2 cells
# Assay type: ADME, cell-based
readout type: Papp (×10⁻⁶ cm/s)
Enter your answer as a number in ×10⁻⁶ cm/s; do not include the unit.

Some solved entries appear below for comparison.
CC(C)n1cnc(-c2ccc(F)cc2)c1-c1nc(C(=O)Nc2ccc(CCCCC(=O)O)cc2)c[nH]1 | 0.07
CC(C)n1cnc(-c2ccc(F)cc2)c1-c1nc(C(=O)Nc2ccc(CCC(=O)O)cc2)c[nH]1 | 0.07

Any idea what its Papp is? The compound is CC(C)n1cnc(-c2ccc(F)cc2)c1-c1nc(C(=O)Nc2ccc(C(=O)O)cc2)c[nH]1
0.07
